Provide the recorded pKd for the entries that follow.
STUDY_SYSTEM: T1, human IgE (myeloma IgE) (human, UniProt P01854-1 1-428)
T1 construct: Myeloma IgE coupled by amine coupling to a CM5 chip for Biacore; Also used to sensitize human FcεRIα-expressing 3D10 cells; also called PS IgE
T1 sequence (P01854 other isoform, or with tags, fused parts or gaps): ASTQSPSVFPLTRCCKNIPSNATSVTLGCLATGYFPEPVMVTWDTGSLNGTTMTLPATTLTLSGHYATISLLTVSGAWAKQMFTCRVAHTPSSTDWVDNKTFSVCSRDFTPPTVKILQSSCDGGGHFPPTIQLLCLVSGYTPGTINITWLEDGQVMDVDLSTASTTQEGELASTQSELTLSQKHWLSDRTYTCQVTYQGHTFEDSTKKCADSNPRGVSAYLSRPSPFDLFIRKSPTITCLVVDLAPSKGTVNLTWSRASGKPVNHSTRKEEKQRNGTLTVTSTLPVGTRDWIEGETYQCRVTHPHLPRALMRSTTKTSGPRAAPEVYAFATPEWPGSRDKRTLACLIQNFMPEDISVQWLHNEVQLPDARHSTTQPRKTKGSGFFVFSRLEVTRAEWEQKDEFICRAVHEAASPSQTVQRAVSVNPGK
PROCEDURE_DETAILS: SPR, Biacore T2000, myeloma IgE amine-coupled to CM5 chip, antibody in solution
The quantity pKd is defined as the negative base-10 logarithm of the molar concentration.

// field: pKd; key: hLAAIGE E23 (antibody, human IgG1, kappa, V domains shown, The entries are labelled 'VH' and 'VL' but are full heavy (human IgG1) and kappa light chains; Humanized, derived from Founder E17) VH: QVQLVQSGSELKKPGASVKVSCKASGYTFTNYGMNWVRQAPGQGLEWMGWINTYTGEPTYADDFKGRFVFSLDTSVSTAYLQISSLKAEDTAVYYCARGAASHTMDYWGQGTTVTVSS VL: DIVMTQSPDSLAVSLGERATINCRASQSVSTSSYSYMHWYQQKPGQPPKLLIYYASNLKAGVPDRFSGSGSGTDFTLTISSLQAEDVAVYYCQHSWEIPWTFGQGTKLEIKR ; value = 6.96

// field: pKd; key: hLAAIGE S91 (antibody, human IgG1, lambda, V domains shown, The entries are labelled 'VH' and 'VL' but are full heavy (human IgG1) and lambda light chains; Humanized, derived from Founder F11) VH: QVQLVQSGAEVKKPGASVKVSCKASGYTFTSYGISWVRQAPGQGLEWMGWISAYNGNTNYAQKLQGRVTMTTDTSTSTAYMELRSLRSDDTAVYYCARVSSWPYWYFDLWGRGTLVTVSS VL: QSAVTQPPSASGSPGQSVTISCTGTSSDVGAYDYVSWYQQHPGKAPKLMIYEVSKRPSGVPDRFSGSKSGNTASLTVSGLQAEDEADYYCSSYAGRVDVFGGGTKLTVLG ; value = 5.13

// field: pKd; key: hLAAIGE E14 (antibody, human IgG1, kappa, V domains shown, The entries are labelled 'VH' and 'VL' but are full heavy (human IgG1) and kappa light chains; Humanized, derived from Founder E17) VH: QVQLVQSGSELKKPGASVKVSCKASGYTFTNYGMNWVRQAPGQGLEWMGWINTYTGEPTYADDFKGRFVFSLDTSVSTAYLQISSLKAEDTAVYYCARGAASHTMDYWGQGTTVTVSS VL: DIVMTQSPDSLAVSLGERATINCRASQSVSTSAHSYMHWYQQKPGQPPKLLIYYASNLESGVPDRFSGSGSGTDFTLTISSLQAEDVAVYYCQHSWEIPWTFGQGTKLEIKR ; value = 7.17
